- Target Desc: wild type NTRK1 enzyme (Homo sapiens)
- Construct: purchased BPS Bioscience 40280
- Sequence (P04629 440-796 limits assumed): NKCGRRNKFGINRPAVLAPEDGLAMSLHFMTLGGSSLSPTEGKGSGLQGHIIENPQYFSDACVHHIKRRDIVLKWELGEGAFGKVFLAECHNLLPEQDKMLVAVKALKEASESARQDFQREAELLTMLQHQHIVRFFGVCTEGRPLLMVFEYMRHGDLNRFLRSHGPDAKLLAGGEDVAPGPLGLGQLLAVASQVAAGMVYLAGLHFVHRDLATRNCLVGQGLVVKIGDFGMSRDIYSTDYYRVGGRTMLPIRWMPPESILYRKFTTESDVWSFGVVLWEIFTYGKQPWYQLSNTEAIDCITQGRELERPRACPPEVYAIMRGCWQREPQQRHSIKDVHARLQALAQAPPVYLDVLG
- Assay Procedure: NTRK1 Wild Type Assay at 1 mM ATP
- Assay type: biochemical
- Condition Label: 1 mM ATP; read-out: Enz NTRK1 IC50
pIC50: −log10 of the molar value.
# pIC50 per entry

Recorded pIC50, per entry:
{"columns": ["Compound", "Assay Metric", "Endpoint Result"],
 "data": [
  ["O=C(c1n[nH]c2ncnc(NC3CC(F)CC3O)c12)N1CC(F)CC1c1cc(F)cc(F)c1 (centres unmarked) [Compound 178]", "pIC50", "> 8.00"],
  ["O=C(NCc1cc(F)ccc1F)c1n[nH]c2ncnc(N[C@@H]3C[C@H]4C[C@H]4[C@H]3O)c12 [Compound 4]", "pIC50", "6.00 to 7.00"],
  ["O=C(NCc1cc(F)ccc1F)c1n[nH]c2ncnc(NC3CCC(F)C3O)c12 (centres unmarked) [Compound 18]", "pIC50", "6.00 to 7.00"],
  ["N#C[C@H]1C[C@@H](O)[C@H](Nc2ncnc3[nH]nc(C(=O)N4C[C@@H](F)C[C@@H]4c4cc(F)cc(Cl)c4)c23)C1 [Compound 211]", "pIC50", "> 8.00"],
  ["O=C(c1n[nH]c2ncnc(N[C@@H]3CCOC[C@H]3O)c12)N1C[C@@H](F)C[C@@H]1c1cccc(F)c1 [Compound 158]", "pIC50", "> 8.00"],
  ["O=C(c1n[nH]c2ncnc(N[C@@H]3CC[C@@H](O)[C@H]3O)c12)N1C[C@@H](F)C[C@@H]1c1ccccc1 [Compound 144]", "pIC50", "7.00 to 8.00"],
  ["O=C(c1n[nH]c2ncnc(NC3CC(F)CC3O)c12)N1CC(F)CC1c1cc(F)ccc1F (centres unmarked) [Compound 95]", "pIC50", "> 8.00"],
  ["O=C(c1n[nH]c2ncnc(NC3CCCC3O)c12)N1CC(F)CC1c1cncc(F)c1 (centres unmarked) [Compound 46]", "pIC50", "> 8.00"]
]}

// lookup pIC50 for O=C(c1n[nH]c2ncnc(N[C@H]3[C@H](O)[C@H](O)[C@@H]4C[C@@H]43)c12)N1C[C@@H](F)C[C@@H]1c1cc(Cl)ccc1F [Compound 215]
> 8.00

// lookup pIC50 for O=C(NCc1cc(F)ccc1F)c1n[nH]c2ncnc(N[C@@H]3CCC[C@@H](O)[C@H]3O)c12 [Compound 32]
7.00 to 8.00

// lookup pIC50 for O=C(c1n[nH]c2ncnc(N[C@@H]3COC[C@@H](O)[C@H]3O)c12)N1C[C@@H](F)C[C@@H]1c1cc(F)ccc1OC(F)(F)F [Compound 244]
> 8.00

// lookup pIC50 for O=C(c1n[nH]c2ncnc(N[C@@H]3COCC[C@H]3O)c12)N1C[C@@H](F)C[C@@H]1c1cncc(F)c1 [Compound 74]
> 8.00

// lookup pIC50 for O=C(c1n[nH]c2ncnc(N[C@@H]3C[C@@H](O)C[C@H]3O)c12)N1C[C@@H](F)C[C@@H]1c1cc(F)ccc1F [Compound 86]
> 8.00

// lookup pIC50 for CC(C)(O)[C@H]1C[C@@H](O)[C@H](Nc2ncnc3[nH]nc(C(=O)N4C[C@@H](F)C[C@@H]4c4cc(F)ccc4F)c23)C1 [Compound 232]
> 8.00
